// IC50 lookup, one value per entry
# SYSTEM NAME: human liver FBPase (Homo sapiens (Human), UniProt P09467)
# Sequence (P09467 2-338): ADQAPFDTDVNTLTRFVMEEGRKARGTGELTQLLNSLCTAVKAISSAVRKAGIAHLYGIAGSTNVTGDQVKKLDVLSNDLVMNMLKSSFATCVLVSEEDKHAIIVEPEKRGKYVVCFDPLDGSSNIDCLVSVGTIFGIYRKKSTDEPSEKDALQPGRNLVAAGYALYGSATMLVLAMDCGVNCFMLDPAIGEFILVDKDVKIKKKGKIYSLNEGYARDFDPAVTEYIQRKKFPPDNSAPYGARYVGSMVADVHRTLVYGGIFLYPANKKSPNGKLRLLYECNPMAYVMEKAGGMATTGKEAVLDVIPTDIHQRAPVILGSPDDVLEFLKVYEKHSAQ
# EXPERIMENTAL DETAILS: FBPase activity, enzyme-coupled spectrophotometric assay
# Assay type: biochemical
# STUDY CONDITIONS: human liver FBPase; read-out: FBPase, IC50 Human Liver

COMPOUND	SYSTEM NAME	UNIT OF MEASURE	IC50
CCC(C)C(=O)c1c(O)cc2oc3c(C(=O)C(C)CC)c(O)cc(O)c3c2c1O (centres unmarked)	human liver FBPase (Homo sapiens (Human), UniProt P09467)	µM	6
CC(C)CC(=O)c1c(O)cc2oc3c(C(=O)CC(C)C)c(O)cc(O)c3c2c1O	human liver FBPase (Homo sapiens (Human), UniProt P09467)	µM	8.1

###

# SYSTEM NAME: human liver FBPase (Homo sapiens (Human))
# EXPERIMENTAL DETAILS: FBPase activity, enzyme-coupled spectrophotometric assay
# Type: biochemical
# STUDY CONDITIONS: human liver FBPase; read-out: IC50 human liver FBPase
RECORDED ENDPOINT: IC50 (µM)

COMPOUND	REPORTED MEASUREMENT
CC(=O)C1=C(O)C=C2Oc3c(C(C)=O)c(O)c(C)c(O)c3[C@@]2(C)C1=O [Compound 2, (+)-usnic acid, reference compound]	370
